Test system: COLO 205 colon
Test: NCI-60 one-dose screen, 48 h
Settings: 10 µM unless noted
Compounds without any hit were thinned out: in the full panel of roughly 83,000, 20% have a hit. Activity calls are given as the source filed them. The calls were made as follows: active = growth percent below 10; inactive = the rest.
Classes used: Yes (active), No (inactive)

structure_string=O=C(Nc1nc2ccc([N+](=O)[O-])cc2s1)Nc1ccc(Cl)cc1Cl study_target="COLO 205 colon" discrete_label=No
structure_string=Clc1ccc2c(NCCNC34CC5CC(CC(C5)C3)C4)ccnc2c1 study_target="COLO 205 colon" discrete_label=Yes
structure_string=COc1ccc(NC(=O)Cn2c(/C=C/c3ccc([N+](=O)[O-])cc3)nc3ccccc3c2=O)cc1 study_target="COLO 205 colon" discrete_label=No
structure_string=Cc1cccc(-c2ccccc2Oc2ccc3nnc(Cl)n3n2)c1 study_target="COLO 205 colon" discrete_label=No
structure_string=C/C(=N\Nc1ccc(C(=O)O)cc1)c1cnn(-c2cc(=O)[nH]c3ccc(C)cc23)c1C study_target="COLO 205 colon" discrete_label=No

* * *

Tested on: ACHN renal
Experiment: NCI-60 one-dose screen, 48 h
Details: 10 µM unless noted
This is part of a sample that, as a whole, favours compounds with a hit. Of some 83,000 tested, about 20% had one in any assay. Calls of active or inactive are those of the source. How the source made its calls: active means growth percent below 10; inactive means the rest.
Possible outcomes: active, inactive

compound=CCOC(=O)c1ccc(NC(=S)NC(=O)c2cccc(NC(=O)c3ccc(C)cc3)c2)cc1 discrete_label=inactive
compound=O=Cc1cncc(-c2ccc3ncnc(N4CCc5cc(F)c(Cl)cc54)c3c2)c1 discrete_label=inactive
compound=Cc1ccc(C(=O)Nc2ccc(-n3ccnc3)c(C(F)(F)F)c2)cc1C#Cc1cnc2cccnn12 discrete_label=inactive
compound="CCOc1ccc2[nH]c(=O)c(C(c3nnnn3CC3CCCO3)N3CCN(Cc4ccccc4)CC3)cc2c1 (centres undefined)" discrete_label=inactive
compound=COc1ccc2[nH]cc(-c3cc4nc(-c5cn(C)c6ncccc56)cc(N)n4n3)c2c1 discrete_label=active
compound="COc1c2c(c(Br)c3c1C(CCc1ccccc1)N(C)CC3)OCO2 (centres undefined)" discrete_label=inactive
compound=COc1ccc(-c2cc(-c3ccccc3)c(C#N)c(=O)[nH]2)cc1S(N)(=O)=O discrete_label=inactive
compound="COc1ccc2c(c1)C(Sc1ccc(Cl)cc1)c1c(nc(N)c(C#N)c1N)O2 (centres undefined)" discrete_label=inactive
compound=O=C(NNC(=S)NCCc1ccccc1)c1ccc(OCc2nc3ccc(Cl)cc3[nH]2)cc1 discrete_label=inactive

* * *

Tested on: RPMI-8226 leukemia
Experiment: NCI-60 one-dose screen, 48 h
Details: 10 µM unless noted
Compounds without any hit were thinned out: in the full panel of roughly 83,000, 20% have a hit. Calls of active or inactive are those of the source. How the source made its calls: active means growth percent below 10; inactive means the rest.
Labels: active, inactive

molecule="CC1=C(C(=O)Nc2ccccc2)C(c2cccc3ccccc23)n2c(nc3ccccc32)N1 (stereo not given)" discrete_label=inactive
molecule=O=C(CSc1nnc(-c2ccc(-c3nc4ccc(Cl)cc4[nH]3)cc2)o1)Nc1ccccc1 discrete_label=inactive
molecule="CNS(=O)(=O)N1CCc2c(Br)c3c(c(OC)c2C1CCc1ccccc1)OCO3 (stereo not given)" discrete_label=active
molecule=Cn1cc(-c2cc(N)n3nc(-c4c[nH]c5ccc(Cl)cc45)cc3n2)c2cc(Br)cnc21 discrete_label=active
molecule=N#Cc1c(-c2ccc(F)cc2)nc(SCc2ccc(F)cc2)nc1N1CCNCC1 discrete_label=active
molecule="CC1=C(C(=O)OC(C)C)C(c2ccc(O)cc2)NC(=O)N1 (stereo not given)" discrete_label=inactive
molecule="O=C(O)CC1S/C(=N/N=C/c2nc3ccccc3s2)NC1=O (stereo not given)" discrete_label=inactive
molecule=COc1cccc(NC(=O)c2ccc(NC(=O)CCl)s2)c1 discrete_label=active
molecule=COc1ccc2[nH]c(O)c(N=Nc3nc(-c4ccccc4)cs3)c2c1 discrete_label=inactive
molecule=O=C(CSc1nnc(-c2ccc(-c3nc4ccc(Cl)cc4[nH]3)cc2)o1)Nc1ccc(Cl)cc1 discrete_label=active
molecule=COc1cc(C=O)ccc1OC(=O)c1cc(-c2ccc(C)cc2)n(-c2ccc(S(C)(=O)=O)cc2)n1 discrete_label=inactive
molecule="Oc1ccc(Cl)c(Nc2ncnc3c2cnn3CC(Cl)c2ccc(Br)cc2)c1 (stereo not given)" discrete_label=inactive
molecule=N#CCc1nnc(NC(=O)c2ccc(-n3c(=O)[nH]c4ccccc4c3=O)cc2)s1 discrete_label=inactive
molecule=COc1cc(/C=C/C(=O)c2cnn(-c3cc(=O)[nH]c4ccccc34)c2C)cc(OC)c1OC discrete_label=active
molecule=O=C(Nc1ccc(S(=O)(=O)N2CCCCC2)cc1)C(Cl)Cl discrete_label=inactive
molecule=CCc1ccccc1-c1nc(CN[C@@H]2C[C@@H]3C[C@H]([C@H]2C)C3(C)C)c(C)o1 discrete_label=active
molecule="OC1CCC(Cn2c(C(F)(F)F)cc3c(Cl)ncnc32)CC1 (stereo not given)" discrete_label=inactive
molecule=NC(=O)c1ccc(-c2ccc3ncnc(N4CCc5cc(F)c(Cl)cc54)c3c2)cn1 discrete_label=inactive
molecule="Cc1ccc(C(C(=O)NC2CCCCC2)N(Cc2ccccc2Cl)C(=O)c2ccc(CN3CCOCC3)o2)o1 (stereo not given)" discrete_label=inactive
molecule=O=C(CSc1nc2ccccc2c(=O)[nH]1)NNC(=O)c1ccccc1Cl discrete_label=inactive

* * *

Test system: SR leukemia
Assay: NCI-60 one-dose screen, 48 h (100 = growth as untreated, 0 = no growth, -100 = all killed)
Settings: 10 µM unless noted
Description: Growth inhibition of the SR human tumor cell line is measured as a screen for anti-cancer activity. Cells are grown in 96 well plates and exposed to the test compound for 48 hours. Compounds are tested at a single concentration, which is 10^-5 M for most compounds. The reported endpoint is percent growth (GI% or GIPRCNT), where numbers from 0 - 100% represent growth inhibition, and numbers from -100% - 0 represent cell death. For example, a value of 40 represents 60% growth inhibition. […]
The panel holds about 83,000 compounds, 20% with a hit somewhere; the sample as a whole holds those more often. Calls of active or inactive are those of the source. Rule for the calls: active = growth percent below 10; inactive = the rest.
MEASURE: growth

compound=Cc1nn(-c2ccccc2)c2nc(C)n(CC(=O)N/N=C/c3cccc([N+](=O)[O-])c3)c(=O)c12 measure=growth readout_value="85.8% (inactive)"
compound=O=C(N=Nc1c(O)[nH]c2ccc(Br)cc12)c1ccc2nc(-c3ccc(Cl)cc3)[nH]c2c1 measure=growth readout_value="15.1% (inactive)"
compound=O=C(N/N=C/c1ccoc1)c1[nH]c2ccc(Br)cc2c1-c1ccccc1 measure=growth readout_value="-13.1% (active)"
compound=COc1ccc(-c2cc(C(=O)N=Nc3c(O)[nH]c4ccc(Cl)cc34)c3ccccc3n2)cc1 measure=growth readout_value="53.1% (inactive)"
compound=CN(C)c1nc(NCCNS(=O)(=O)c2ccc(C(=O)/C=C/c3ccc(C(F)(F)F)cc3)cc2)nc(N2CCOCC2)n1 measure=growth readout_value="-23% (active)"
compound=CCCCCCCCCc1ccc(C(=O)Nc2cc(C)ccc2C(=O)OC)cc1 measure=growth readout_value="90.1% (inactive)"
compound=O=C(CSc1nnc(-c2ccc(-c3nc4ccc(Cl)cc4[nH]3)cc2)o1)Nc1ccccc1 measure=growth readout_value="10.9% (inactive)"
compound=C=CC[n+]1cccc2c3ccccc3ccc21 measure=growth readout_value="46.5% (inactive)"
compound=Cc1ccc(Cl)cc1NC(=O)Nc1nc2ccc([N+](=O)[O-])cc2s1 measure=growth readout_value="1.31% (active)"
compound=O=C(Nc1ccc(Cl)c(C(F)(F)F)c1)N1CCN(c2cc(-c3cn(-c4ccccc4)nc3-c3cccc(O)c3)ccn2)CC1 measure=growth readout_value="10.8% (inactive)"
compound=FC(F)(F)CN1CCN(CCn2c(C(F)(F)F)cc3c(Cl)ncnc32)CC1 measure=growth readout_value="-54.6% (active)"
compound=C=CC(=O)N1CCN(c2ccc3nc4c(nc3c2C(F)(F)F)C(=O)c2ncccc2C4=O)CC1 measure=growth readout_value="33.2% (inactive)"
compound=N#C/C(=C1/C(=O)Nc2ccccc21)c1nnc(NC(=O)c2ccc(-n3c(=O)[nH]c4ccccc4c3=O)cc2)s1 measure=growth readout_value="17% (inactive)"
compound="O=C(c1ccc(Cl)cc1)C1[C@H](c2ccccc2Cl)[C@@H](c2ccccc2)NC12C(=O)Nc1ccc(Cl)cc12 (stereo partly drawn)" measure=growth readout_value="-52.8% (active)"
compound=COc1ccc(-c2nnc3c(/C=C/c4ccc(Br)cc4)nc4ccccc4n23)cc1 measure=growth readout_value="-19.4% (active)"
compound=Cn1cc(-c2cc(N)n3nc(-c4c[nH]c5ccccc45)cc3n2)c2cc(Br)ccc21 measure=growth readout_value="13.6% (inactive)"
compound=C[C@@H]1CN(c2ccc3ncc(C#Cc4cncc(C(=O)Nc5ccc(CN6CCN(C)CC6)c(C(F)(F)F)c5)c4)n3n2)C[C@@H](C)O1 measure=growth readout_value="-27.6% (active)"
compound=S=C(Nc1ccc(OCc2nc3ccc(Cl)cc3[nH]2)cc1)NC1CCCCC1 measure=growth readout_value="-27.3% (active)"
